These entries and their values trace back to patent US20140135310A1.

biological target: dopaminergic receptors D3 (Homo sapiens); assay: Radioligand binding assay, dopaminergic D3 receptors; settings: test compound 1×10^−6 M
Sequence (P35462 whole entry): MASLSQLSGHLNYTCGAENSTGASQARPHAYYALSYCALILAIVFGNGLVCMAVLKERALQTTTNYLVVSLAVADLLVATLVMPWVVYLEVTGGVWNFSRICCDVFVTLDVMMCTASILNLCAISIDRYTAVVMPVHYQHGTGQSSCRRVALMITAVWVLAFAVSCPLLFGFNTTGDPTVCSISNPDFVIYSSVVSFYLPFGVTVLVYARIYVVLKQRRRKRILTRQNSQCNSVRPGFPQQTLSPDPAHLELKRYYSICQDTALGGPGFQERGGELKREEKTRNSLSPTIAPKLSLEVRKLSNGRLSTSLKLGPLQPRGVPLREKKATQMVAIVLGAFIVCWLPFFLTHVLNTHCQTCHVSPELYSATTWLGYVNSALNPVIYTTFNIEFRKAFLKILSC
measurement.kind: inhibition at 1 µM (%)
I only need the number, in %, no unit after it.

Below: 5 compounds and their reported inhibition at 1 µM.
# compound, measurement.target, u, inhibition at 1 µM
rows = [
    ("O=S(=O)(NC1CN(CCOc2cccc3[nH]ccc23)C1)c1ccccc1", "dopaminergic receptors D3 (Homo sapiens)", "%", 87),
    ("Cn1ccc2c(S(=O)(=O)NCC3CCN(CCCc4noc5cc(F)ccc45)C3)cccc21 (centres unmarked)", "dopaminergic receptors D3 (Homo sapiens)", "%", 61),
    ("O=S(=O)(N[C@@H]1CCN(CCCc2noc3cc(F)ccc23)C1)c1cc2ccccc2s1", "dopaminergic receptors D3 (Homo sapiens)", "%", 94),
    ("O=S(=O)(NC1CCN(CCCc2noc3cc(F)ccc23)C1)c1ccc(F)cc1 (centres unmarked)", "dopaminergic receptors D3 (Homo sapiens)", "%", 18),
    ("O=S(=O)(NC1CCN(CCCc2noc3cc(F)ccc23)C1)c1cnc2ccccn12 (centres unmarked)", "dopaminergic receptors D3 (Homo sapiens)", "%", -2),
]

So for O=S(=O)(NCC1CCN(CCOc2cccc3c2OCCO3)C1)c1ccc(Br)cc1 (centres unmarked) , the logged inhibition at 1 µM turned out to be 48

Reported inhibition at 1 µM ( O=S(=O)(NCC1CN(CCOc2cccc3ccccc23)C1)c1cc2ccccc2s1 ) = 99

What the record says about O=S(=O)(NCC1CN(CCCc2noc3cc(F)ccc23)C1)c1ccc2ccccc2c1 : inhibition at 1 µM is 80

----------
biological target: 5-HT6 receptor (Homo sapiens); construct: purchased PerkinElmer; assay: Radioligand binding assay, serotoninergic 5-HT6 receptors; settings: binding assay result in %, Table 5a;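 note: test compound at 1 µM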
Sequence (P50406 whole entry): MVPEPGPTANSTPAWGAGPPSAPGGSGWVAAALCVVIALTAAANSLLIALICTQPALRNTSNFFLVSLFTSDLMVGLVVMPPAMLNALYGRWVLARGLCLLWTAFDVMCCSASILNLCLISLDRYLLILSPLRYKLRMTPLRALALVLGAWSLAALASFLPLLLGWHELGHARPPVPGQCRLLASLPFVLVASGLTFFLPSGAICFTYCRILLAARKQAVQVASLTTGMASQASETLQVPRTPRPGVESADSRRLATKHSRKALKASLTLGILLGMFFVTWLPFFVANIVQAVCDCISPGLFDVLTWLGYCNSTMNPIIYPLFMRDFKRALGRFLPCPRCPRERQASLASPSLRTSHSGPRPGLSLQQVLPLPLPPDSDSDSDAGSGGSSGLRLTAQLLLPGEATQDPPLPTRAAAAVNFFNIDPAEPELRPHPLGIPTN
Classification by inhibition at 1 µM | ranges: low bin: < 40%; mid bin: ≥ 40% and < 90%; high bin: ≥ 90%

Category of O=S(=O)(NC1CN(CCOc2cccc3[nH]ccc23)C1)c1cccc(Cl)c1 :
mid bin

Kindly identify the class of Cn1ccc2c(S(=O)(=O)NCC3CN(CCOc4cccc5ccccc45)C3)cccc21 .
high bin

----------
Biological target: receptors D4.4 (Homo sapiens, UniProt P21917)
Sequence (P21917 1-419): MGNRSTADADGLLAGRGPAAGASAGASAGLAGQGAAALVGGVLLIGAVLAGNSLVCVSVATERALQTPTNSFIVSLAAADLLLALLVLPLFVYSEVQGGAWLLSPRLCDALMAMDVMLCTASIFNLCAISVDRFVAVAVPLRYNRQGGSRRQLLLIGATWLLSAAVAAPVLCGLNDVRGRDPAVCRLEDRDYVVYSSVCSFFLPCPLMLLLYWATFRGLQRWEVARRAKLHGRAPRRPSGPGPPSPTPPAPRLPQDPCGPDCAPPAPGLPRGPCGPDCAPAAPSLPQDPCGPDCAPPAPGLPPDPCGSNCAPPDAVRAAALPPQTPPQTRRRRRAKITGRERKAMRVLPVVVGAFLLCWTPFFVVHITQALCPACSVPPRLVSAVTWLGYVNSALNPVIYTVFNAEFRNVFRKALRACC
Assay: Radioligand binding assay, dopaminergic D4 (D4.4) receptors
Conditions: test compound 1×10^−6 M
measurement.kind: inhibition at 1 µM (%)
# unit: % | format: bare number

# compound, u, inhibition at 1 µM
rows = [
    ("O=S(=O)(NC1CCN(CCCc2noc3cc(F)ccc23)C1)c1ccc2cc(Cl)ccc2c1 (centres unmarked)", "%", 55),
    ("O=S(=O)(NCC1CCN(CCOc2cccc3c2OCCO3)C1)c1cccc(F)c1 (centres unmarked)", "%", 48),
    ("Cc1c(S(=O)(=O)N[C@H]2CCN(CCCc3noc4cc(F)ccc34)C2)sc2ccc(F)cc12", "%", 78),
    ("O=S(=O)(NCC1CCN(CCCc2noc3cc(F)ccc23)C1)c1cccc2ccccc12 (centres unmarked)", "%", 78),
    ("Cc1cc(S(=O)(=O)N[C@@H]2CCN(CCCc3noc4cc(F)ccc34)C2)c(C)s1", "%", 98),
    ("COc1ccc2cc(S(=O)(=O)NC3CCN(CCCc4noc5cc(F)ccc45)C3)ccc2c1 (centres unmarked)", "%", 88),
    ("Cc1cccc(S(=O)(=O)NC2CCN(CCCc3c[nH]c4ccc(F)cc34)C2)c1 (centres unmarked)", "%", 79),
]

Then there is this compound:
What the record says about O=S(=O)(NC1CCN(CCOc2cccc3ccccc23)C1)c1ccc2ccccc2c1 (centres unmarked) : inhibition at 1 µM is 64
